From: patent US11613542B2

# target: UniProtKB Q96P20
# Sequence (Q96P20 whole entry): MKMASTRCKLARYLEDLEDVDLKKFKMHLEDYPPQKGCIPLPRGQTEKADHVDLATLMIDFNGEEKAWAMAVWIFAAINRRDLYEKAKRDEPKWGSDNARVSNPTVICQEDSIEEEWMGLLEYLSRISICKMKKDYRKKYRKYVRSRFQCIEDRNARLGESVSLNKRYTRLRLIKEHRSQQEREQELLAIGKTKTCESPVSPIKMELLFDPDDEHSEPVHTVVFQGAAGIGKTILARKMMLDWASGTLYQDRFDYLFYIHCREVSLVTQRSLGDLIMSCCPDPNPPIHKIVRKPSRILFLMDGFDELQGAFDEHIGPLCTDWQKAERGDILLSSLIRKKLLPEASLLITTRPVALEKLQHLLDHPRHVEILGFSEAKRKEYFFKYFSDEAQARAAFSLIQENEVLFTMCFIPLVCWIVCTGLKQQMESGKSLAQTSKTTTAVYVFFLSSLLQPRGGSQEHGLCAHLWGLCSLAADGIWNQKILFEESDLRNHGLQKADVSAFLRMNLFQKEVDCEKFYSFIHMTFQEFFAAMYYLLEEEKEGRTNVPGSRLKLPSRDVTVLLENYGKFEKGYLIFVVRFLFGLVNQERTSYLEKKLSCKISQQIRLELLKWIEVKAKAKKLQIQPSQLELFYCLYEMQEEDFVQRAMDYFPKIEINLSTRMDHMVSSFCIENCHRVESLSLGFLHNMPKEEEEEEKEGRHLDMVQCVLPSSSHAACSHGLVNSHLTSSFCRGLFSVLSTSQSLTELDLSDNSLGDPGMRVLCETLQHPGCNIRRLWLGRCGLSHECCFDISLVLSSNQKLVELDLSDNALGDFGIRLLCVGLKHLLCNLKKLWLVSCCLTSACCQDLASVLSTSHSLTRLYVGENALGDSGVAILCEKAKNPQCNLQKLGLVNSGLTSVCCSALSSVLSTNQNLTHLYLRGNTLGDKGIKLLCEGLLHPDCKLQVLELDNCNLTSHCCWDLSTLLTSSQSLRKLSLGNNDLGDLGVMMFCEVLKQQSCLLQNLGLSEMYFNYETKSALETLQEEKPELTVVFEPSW
# assay-explanation: THP-1 cells pyroptosis assay
# Type: cell-based
# Design: Seed THP-1 cells (25,000 cells/well) containing 1.0 μg/ml LPS; host or cells: THP-1 cells, LPS-primed, nigericin-stimulated
# measurement-setup: THP-1 cells, 1.0 μg/ml LPS, compound 3 hrs, nigericin 5 μM 1 hr, resazurin readout; read-out: THP IC50
Structures can show the parent of a compound that is named as a salt.
reported-metric: IC50

INSERT INTO measurements (compound, test_result) VALUES
  ('CC(C)c1cccc(C(C)C)c1NC(=O)NS(=O)(=O)c1cc(C(=O)N2CCC2)n(C)n1', '< 640 nM'),
  ('CN1CCC(n2ccc(S(=O)(=O)NC(=O)Nc3c4c(cc5c3CCC5)CCC4)n2)CC1', '< 2560 nM'),
  ('CNC(=O)Cn1ccc(S(=O)(=O)NC(=O)Nc2c3c(cc4c2CCC4)CCC3)n1', '< 640 nM'),
  ('Cn1nc(S(=O)(=O)NC(=O)Nc2c3c(cc4c2CCC4)CCC3)cc1CN1CCOCC1', '< 2560 nM'),
  ('CN(C)CCn1cnc(S(=O)(=O)NC(=O)Nc2c3c(cc4c2CCC4)CCC3)n1', '< 640 nM'),
  ('CC(C)c1cccc(C(C)C)c1NC(=O)NS(=O)(=O)c1cc(C(=O)N(C)C)n(C)n1 [Example 167, sodium salt]', '< 640 nM'),
  ('CN1CC(Cn2ccc(S(=O)(=O)NC(=O)Nc3c4c(cc5c3CCC5)CCC4)n2)C1', '< 640 nM'),
  ('CN(CCO)C(=O)c1cc(S(=O)(=O)NC(=O)Nc2c3c(cc4c2CCC4)CCC3)nn1C [Example 176, ammonium salt]', '< 160 nM'),
  ('CC(=O)N1CC(n2ccc(S(=O)(=O)NC(=O)Nc3c4c(cc5c3CCC5)CCC4)n2)C1', '< 2560 nM'),
  ('CC(C)c1cc(F)cc(C(C)C)c1NC(=O)NS(=O)(=O)c1cc(CN(C)CCO)n(C)n1', '< 640 nM'),
  ('CN(C)CC(C)(C)n1ccc(S(=O)(=O)NC(=O)Nc2c(-c3ccnc(C#N)c3)ccc3c2CCC3)n1', '< 40 nM'),
  ('CCN(CC)C(=O)c1cc(S(=O)(=O)NC(=O)Nc2c3c(cc4c2CCC4)CCC3)nn1C', '< 160 nM'),
  ('CC(C)c1cccc(C(C)C)c1NC(=O)NS(=O)(=O)c1cc(C(=O)N(C)CC#N)n(C)n1', '< 10000 nM'),
  ('CC(C)c1ccc(-c2cncnc2)cc1NC(=O)NS(=O)(=O)c1cc(C(=O)N(C)C)n(C)n1 [Example 134, sodium salt]', '< 2560 nM');
